Please respond with reported self-cleavage kobs at 160 uM GlcN6P for every item in the list.
B1: glmS ribozyme (parent)
chain: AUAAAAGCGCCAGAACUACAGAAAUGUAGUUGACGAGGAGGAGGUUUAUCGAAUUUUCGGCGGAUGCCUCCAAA

variants of: B1; test: self-cleavage kobs at 160 uM GlcN6P; higher = faster cleavage; RNA array; details: with glucosamine-6-phosphate
This sample holds only a part of the variants without activity.

# self-cleavage kobs at 160 uM GlcN6P (variant: G9U G13C A42U ) is < 1e-05 s⁻¹

# self-cleavage kobs at 160 uM GlcN6P (variant: U45C C50G ) is < 1e-05 s⁻¹

# self-cleavage kobs at 160 uM GlcN6P (variant: A42C G44A ) is < 1e-05 s⁻¹

# self-cleavage kobs at 160 uM GlcN6P (variant: U31A G38A A42C ) is < 1e-05 s⁻¹

# self-cleavage kobs at 160 uM GlcN6P (variant: G38U G41C ) is < 1e-05 s⁻¹

# self-cleavage kobs at 160 uM GlcN6P (variant: G41A G51C ) is < 1e-05 s⁻¹

# self-cleavage kobs at 160 uM GlcN6P (variant: G51A G62C ) is < 1e-05 s⁻¹

# self-cleavage kobs at 160 uM GlcN6P (variant: A39C C61A ) is < 1e-05 s⁻¹

# self-cleavage kobs at 160 uM GlcN6P (variant: A6C C58U ) is < 1e-05 s⁻¹

# self-cleavage kobs at 160 uM GlcN6P (variant: C10A G13C C16U G51C ) is < 1e-05 s⁻¹

# self-cleavage kobs at 160 uM GlcN6P (variant: G43C G59C ) is < 1e-05 s⁻¹

# self-cleavage kobs at 160 uM GlcN6P (variant: G66C U69G ) is 4.18e-05 s⁻¹

# self-cleavage kobs at 160 uM GlcN6P (variant: U47G C70A ) is 0.000107 s⁻¹

# self-cleavage kobs at 160 uM GlcN6P (variant: G13A C71U ) is 2.52e-05 s⁻¹

# self-cleavage kobs at 160 uM GlcN6P (variant: G13C C58G ) is < 1e-05 s⁻¹

# self-cleavage kobs at 160 uM GlcN6P (variant: C8A C10G ) is < 1e-05 s⁻¹

# self-cleavage kobs at 160 uM GlcN6P (variant: G9U A53C ) is < 1e-05 s⁻¹

# self-cleavage kobs at 160 uM GlcN6P (variant: C10A U30A C68U ) is 8.08e-05 s⁻¹
